compounds and their reported inhibition at 0.001 µM
subject of test: UniProt P37288
Sequence (P37288 whole entry): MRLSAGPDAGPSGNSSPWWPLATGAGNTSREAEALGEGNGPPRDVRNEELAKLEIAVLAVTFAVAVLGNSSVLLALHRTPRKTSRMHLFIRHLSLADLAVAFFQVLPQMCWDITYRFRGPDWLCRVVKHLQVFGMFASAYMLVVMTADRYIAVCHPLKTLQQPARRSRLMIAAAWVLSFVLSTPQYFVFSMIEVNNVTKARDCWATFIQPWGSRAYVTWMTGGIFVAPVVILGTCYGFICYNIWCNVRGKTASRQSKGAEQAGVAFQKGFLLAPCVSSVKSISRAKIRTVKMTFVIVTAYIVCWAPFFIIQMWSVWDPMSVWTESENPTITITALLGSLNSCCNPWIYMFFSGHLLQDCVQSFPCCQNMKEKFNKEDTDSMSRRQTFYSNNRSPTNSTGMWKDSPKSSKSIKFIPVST
assay remarks: In vitro V1a binding assay
test context: read-out: % Binding inhibition (10^−9M)

# compound, inhibition at 0.001 µM (%)
rows = [
    ("Cc1cnccc1-c1ccc(C(=O)N2CC3(C)CC2CC(C)(C)C3)cc1 (centres unmarked)", 10.5),
    ("COc1cc(C(=O)N2C[C@]3(C)C[C@H]2CC(C)(C)C3)ccc1-c1c[nH]c2ccccc12", 51.4),
    ("CC1(C)CC2CC(C)(CN2C(=O)c2ccc(-c3c[nH]c4ccccc34)c(OCCF)c2)C1 (centres unmarked)", 45.1),
    ("COc1cc(C(=O)N2CC3(C)CC2CC(C)(C)C3)ccc1-c1c[nH]c2cnccc12 (centres unmarked)", -4.7),
    ("COc1cc(C(=O)Nc2ccc(F)cc2)ccc1-c1c[nH]c2ccccc12 [13e]", 5),
    ("COc1cc(C(=O)N2CCN(C)CC2)ccc1-c1c[nH]c2ccccc12 [13a]", 15.7),
    ("COc1cc(C(=O)N2CC3(C)CC2CC(C)(C)C3)ccc1-c1ccc(F)nc1 (centres unmarked)", 2.9),
    ("Cc1ccccc1-c1ccc(C(=O)N2CC3(C)CC2CC(C)(C)C3)c(F)c1 (centres unmarked)", 22.8),
    ("Cc1ncccc1-c1ccc(C(=O)N2CC3(C)CC2CC(C)(C)C3)cc1 (centres unmarked)", -6.6),
    ("Cc1ccncc1-c1ccc(C(=O)N2CC3(C)CC2CC(C)(C)C3)c(F)c1 (centres unmarked)", 2.4),
    ("COc1cc(C(=O)NC23CC4CC(CC(C4)C2)C3)ccc1-c1c[nH]c2ccccc12 [13d]", 7.4),
]
